Hi! I'm sharing some pKi results obtained with 5-hydroxytryptamine receptor 6 (Homo sapiens, UniProt P50406).
Sequence (P50406 whole entry): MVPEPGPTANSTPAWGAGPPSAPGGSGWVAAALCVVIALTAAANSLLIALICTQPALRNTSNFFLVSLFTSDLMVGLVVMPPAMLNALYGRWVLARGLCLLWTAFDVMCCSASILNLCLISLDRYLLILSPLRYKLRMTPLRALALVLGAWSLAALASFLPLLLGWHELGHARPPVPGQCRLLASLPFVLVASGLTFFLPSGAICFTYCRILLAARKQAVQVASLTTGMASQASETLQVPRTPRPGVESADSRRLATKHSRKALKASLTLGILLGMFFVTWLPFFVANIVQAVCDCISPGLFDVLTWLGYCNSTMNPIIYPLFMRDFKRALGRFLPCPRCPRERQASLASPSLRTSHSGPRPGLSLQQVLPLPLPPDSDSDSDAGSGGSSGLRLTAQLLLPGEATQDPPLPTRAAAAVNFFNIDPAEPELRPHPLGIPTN
pKi field: float, defined as -log10 of concentration (mol/L).

compound	pKi
Cc1c(S(=O)(=O)n2cc(C[C@@H]3CCCN3C)c3ccccc32)sc2ccc(Cl)cc12	7.96
Cc1nn(C)c(Cl)c1S(=O)(=O)n1cc(C2=CCCNC2)c2ccccc21	8.10
CN1CCC[C@H]1Cc1cn(S(=O)(=O)c2ccc(Cl)cc2)c2ccccc12	8.15

Proceed to the following item.
Q. What does the record list as pKi for `CN1CCC[C@@H]1Cc1cn(S(=O)(=O)c2ccccc2)c2ccccc12` ?
A. 8.10
